The reported measurements were obtained from paper PMC7973133.

- ASSAY_SYSTEM: E. coli FabG (3-ketoacyl-ACP reductase) (Escherichia coli, UniProt P0AEK2, Y151F)
- Construct: homotetramer
- Sequence (P0AEK2 whole entry Y151F): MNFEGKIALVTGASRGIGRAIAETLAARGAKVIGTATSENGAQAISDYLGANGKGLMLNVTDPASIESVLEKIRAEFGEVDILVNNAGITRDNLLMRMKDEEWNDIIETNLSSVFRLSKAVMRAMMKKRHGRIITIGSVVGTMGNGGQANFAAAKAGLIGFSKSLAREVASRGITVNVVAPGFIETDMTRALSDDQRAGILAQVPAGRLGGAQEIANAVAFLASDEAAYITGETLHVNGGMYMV
- ASSAY_OVERVIEW: fluorescence titration

| SMILES_DATA | Kd / µM |
| --- | --- |
| NC(=O)C1=CN([C@@H]2O[C@H](COP(=O)(O)OP(=O)(O)OC[C@H]3O[C@@H](n4cnc5c(N)ncnc54)[C@H](OP(=O)(O)O)[C@@H]3O)[C@@H](O)[C@H]2O)C=CC1 | 15.8 |
